All values here come from the supplement of paper PMC11061612.

System: NOS-1 (Osteosarcoma)
experimental_protocol: combination Emax (second highest fraction inhibited in the dose matrix, 72 h); higher = more inhibition; extreme values may be limits of the assay
Measured combination Emax of individual entries
API note: the answer field is a bare number with no unit suffix.

Some solved entries appear below for comparison.
• CN(CCO)CC[C@H](CSc1ccccc1)Nc1ccc(S(=O)(=O)NC(=O)c2ccc(N3CCC([C@@H](O)c4ccccc4-c4ccc(Cl)cc4)CC3)cc2)cc1S(=O)(=O)C(F)(F)F [AZD4320] + C1CN(CCC1(C(=O)N[C@@H](CCO)C2=CC=C(C=C2)Cl)N)C3=NC=NC4=C3C=CN4 [Capivasertib] (first compound max 1 µM, 7x7, partner max 3 µM) = 0.475
• CN(C)CCCOc1ccc(-c2ccc3ncc4c(c3c2)n(C2CCOCC2)c(=O)n4C)cn1 [AZD0156] + C[C@@H]1COCCN1C2=NC(=NC(=C2)C3(CC3)[S@](=N)(=O)C)C4=C5C=CNC5=NC=C4 [AZD6738] (first compound max 1 µM, 7x7, partner max 10 µM) = 0.255

Continue with the molecule presented below.
Param item = NC1(C(=O)N[C@@H](CCO)c2ccc(Cl)cc2)CCN(c2ncnc3[nH]ccc23)CC1 [Capivasertib] + CCN(CCO)CCCOc1ccc2c(Nc3cc(CC(=O)Nc4cccc(F)c4)[nH]n3)ncnc2c1 [AZD2811] (first compound max 10 µM, 7x7, partner max 1 µM) ; retrieve measured combination Emax.
0.355

* * *

Test system: CaR-1 (Colorectal Carcinoma)
experimental_protocol: combination Emax (second highest fraction inhibited in the dose matrix, 72 h); higher = more inhibition; extreme values may be limits of the assay
assay_readout: combination Emax

* CC(=O)c1c(C)c2cnc(Nc3ccc(N4CCNCC4)cn3)nc2n(C2CCCC2)c1=O [Palbociclib] + CC1(C)CCC(CN2CCN(c3ccc(C(=O)NS(=O)(=O)c4ccc(NCC5CCOCC5)c([N+](=O)[O-])c4)c(Oc4cnc5[nH]ccc5c4)c3)CC2)=C(c2ccc(Cl)cc2)C1 [Venetoclax] (first compound max 10 µM, 7x7, partner max 1 µM) | 0.0978

Param item = CN(CCO)CC[C@H](CSc1ccccc1)Nc1ccc(S(=O)(=O)NC(=O)c2ccc(N3CCC([C@@H](O)c4ccccc4-c4ccc(Cl)cc4)CC3)cc2)cc1S(=O)(=O)C(F)(F)F [AZD4320] + Cn1cnc2c(F)c(Nc3ccc(Br)cc3Cl)c(C(=O)NOCCO)cc21 [Selumetinib] (first compound max 1 µM, 7x7, partner max 3 µM) ; retrieve measured combination Emax.
0.294

* * *

Test system: T98G (Glioblastoma)
experimental_protocol: combination Emax (second highest fraction inhibited in the dose matrix, 72 h); higher = more inhibition; extreme values may be limits of the assay
Tick label 1 if combination Emax is 0.8 or greater. Tick label 0 if combination Emax is less than 0.8.

* N#Cc1cnc(Nc2cc(NC[C@H]3CNCCO3)c(C(F)(F)F)cn2)cn1 [SRA737] + O=c1[nH]cc(F)c(=O)[nH]1 [5-Fluorouracil] (first compound max 10 µM, 7x7, partner max 20 µM) | label 1

Now examine the next entry.
Identify whether the reported combination Emax of the following compound is 0.8 or greater: CN(CCO)CC[C@H](CSc1ccccc1)Nc1ccc(S(=O)(=O)NC(=O)c2ccc(N3CCC([C@@H](O)c4ccccc4-c4ccc(Cl)cc4)CC3)cc2)cc1S(=O)(=O)C(F)(F)F [AZD4320] + CC(=O)O[C@H]1C(=O)[C@@]2(C)[C@H]([C@H](OC(=O)c3ccccc3)[C@]3(O)C[C@H](OC(=O)[C@H](O)[C@@H](NC(=O)c4ccccc4)c4ccccc4)C(C)=C1C3(C)C)[C@]1(OC(C)=O)CO[C@@H]1C[C@@H]2O [Paclitaxel] (first compound max 1 µM, 7x7, partner max 3 µM)
label 1
